Please respond with reported protein stability index for every item in the list.
measurement.description: protein stability index of a GFP-peptide fusion (yeast GPS) (PSI 1-4); higher = more stable; sorted into four equal gates, so the index is relative within each strain
condition.summary: ubr1∆
Answers are plain numbers.

Worked cases, protein stability index given:
[
  {
    "sequence.content": "DKKQQTIDEQSQISPEK [RPN1]",
    "protein stability index": 3.26
  },
  {
    "sequence.content": "LVLPPVVTSSVAESFTD [SNF2]",
    "protein stability index": 2.32
  },
  {
    "sequence.content": "GTSQNYGTATADDADIE [MED1]",
    "protein stability index": 3.24
  },
  {
    "sequence.content": "EFKIEQNNEQNPIDPFN [YDL116W/NUP84]",
    "protein stability index": 3.23
  }
]

Return reported protein stability index values for all items listed beneath this line.
1. MAPFRQDSILIIYPRSQ [ARP9]
2. KRDQYLKSASKETAPVI [RPL28]
3. EIVNMVPSHVPQVLINR [SIR2]

Ans.
1. 2.58
2. 2.43
3. 2.88
